Hey, just so you know, these numbers are from patent US20090149482A1.

Below is a list of entries, each paired with its recorded percent survival value.
# Test system: rabbit corneal cell line (SIRC)
# test context: SIRC cells, 0.5 mM
quantity: percent survival (%)

> print(dat)
                                   compound  reported.value
1        Nc1nc2c(ncn2COCCO)c(=O)[nH]1 [ACV]           69.81
2  CC(C)C(N)C(=O)NC(C(=O)OCCOCn1cnc2c(=O)[nH]c(N)nc21)C(C)C (stereo not drawn) [Val-Val-ACV, Val-Valacyclovir]            85.8
3  O=c1[nH]c(=O)n([C@H]2C[C@H](O)[C@@H](CO)O2)cc1C(F)(F)F [TFT, trifluorothymidine, reference compound]           64.76
4  NCC(=O)NCC(=O)OCCOCn1cnc2c(=O)[nH]c(N)nc21 [Gly-Gly-ACV]            94.7

* * *

Parameter: percent survival. Scope: all listed entries.
# Test system: rabbit corneal cell line (SIRC)
# test context: SIRC cells, 1 mM
quantity: percent survival (%)

> print(dat)
                                   compound  reported.value
1  CC(C)C(N)C(=O)NC(C(=O)OCCOCn1cnc2c(=O)[nH]c(N)nc21)C(C)C (stereo not shown)            87.0
2  O=c1[nH]c(=O)n([C@H]2C[C@H](O)[C@@H](CO)O2)cc1C(F)(F)F [TFT, trifluorothymidine, reference compound]           54.35
3  NCC(=O)NCC(=O)OCCOCn1cnc2c(=O)[nH]c(N)nc21            90.1
4              Nc1nc2c(ncn2COCCO)c(=O)[nH]1           57.37

* * *

# Test system: human fibroblast foreskin cells (HFF)
# test context: read-out: CC50 (concentration required to inhibit cell proliferation by 50%); HSV-1
quantity: CC50

> print(dat)
                                   compound  quantity  reported.value
1  CC(C)C(N)C(=O)NC(C(=O)OCCOCn1cnc2c(=O)[nH]c(N)nc21)C(C)C (stereo not drawn) [Val-Val-ACV, Val-Valacyclovir]      CC50        > 186 µM

* * *

# assay overview: in vitro
# test context: male, New Zealand albino, rabbit, tissue homogenate, t1/2 of conversion to ACV, corneal tissue homogenate
quantity: half-life

> print(dat)
                               entry.smiles  reported.value
1  CC(C)[C@H](N)C(=O)OCCOCn1cnc2c(=O)[nH]c(N)nc21         ~1.42 h

* * *

# assay overview: Plasma pharmacokinetics of stereoisomeric prodrugs following oral administration in rats
# test context: plasma analyte following oral administration of LDACV in rats
quantity: Cmax (µM)

> print(dat)
                               entry.smiles  reported.value
1  CC(C)[C@@H](N)C(=O)OCCOCn1cnc2c(=O)[nH]c(N)nc21            8.68

* * *

# assay overview: Corneal permeation across freshly excised rabbit cornea
# test context: New Zealand albino
quantity: Papp at 3 h (×10⁻⁶ cm/s)

> print(dat)
                                   molecule  reported.value
1  CC(C)C(NC(=O)C(N)Cc1ccc(O)cc1)C(=O)OCCOCn1cnc2c(=O)[nH]c(N)nc21 (stereo not shown)            7.19

* * *

# assay overview: in vitro
# test context: male, New Zealand albino, rabbit, tissue homogenate, corneal half-life, corneal tissue
quantity: half-life (h)

> print(dat)
                               entry.smiles   quantity  reported.value
1  CC(C)[C@H](N)C(=O)OCCOCn1cnc2c(=O)[nH]c(N)nc21  half-life            1.42

* * *

# target or system: hPEPT1 (Homo sapiens)
# Construct: endogenous in cells; host or cells: Caco-2 (human colon carcinoma, ATCC)
# assay overview: [3H] Glycylsarcosine uptake and its inhibition in Caco-2 cells (affinity towards peptide transporter)
# Format: cell-based
# test context: dose response curves; read-out: IC50 of inhibition of [3H] Gly-Sar uptake
Where a SMILES comes first, the peptide text is derived from it. [ ]: non-standard residue; d: D form. Sar = CNCC(=O)O
quantity: IC50 (µM)

> print(dat)
                                   compound  units.symbol  reported.value
1  CN(CC(=O)O)C(=O)CN [Gly-Sar, glycylsarcosine, reference compound] (H-Gly-[Sar]-OH)            µM            2780

* * *

# System: human fibroblast foreskin cells (HFF)
# test context: EBV column
quantity: CC50

> print(dat)
                                   molecule  reported.value
1  CC(C)C(N)C(=O)NC(C(=O)OCCOCn1cnc2c(=O)[nH]c(N)nc21)C(C)C (stereo not drawn) [Val-Val-ACV, Val-Valacyclovir]       > 93.1 µM

* * *

# Test system: VZV
# assay overview: In vitro antiviral screening, CPE inhibition in HFF cells
# Assay type: cell-based, varicella zoster virus
# test context: VZV, CPE Inhibition
pEC50: −log10 of the molar value.
quantity: pEC50

> print(dat)
                                   compound  reported.value
1  CC(C)C(N)C(=O)NC(C(=O)OCCOCn1cnc2c(=O)[nH]c(N)nc21)C(C)C (stereo not shown)            7.05

* * *

# assay overview: in vitro
# test context: human, CC50, HCMV column
quantity: CC50

> print(dat)
                                   compound  quantity  reported.value
1  CC(C)[C@H](N)C(=O)OCCOCn1cnc2c(=O)[nH]c(N)nc21 [Val-ACV, L-Valine-acyclovir]      CC50        > 277 µM

* * *

# Test system: HSV-2
# assay overview: In vitro antiviral screening, CPE inhibition in HFF cells
# Type: cell-based, herpes simplex virus 2
# test context: Human alphaherpesvirus 2, HFF; HSV-2, CPE Inhibition
pEC50: −log10 of the molar value.
quantity: pEC50

> print(dat)
                               entry.smiles  target.or.system  reported.value
1  CC(C)[C@H](N)C(=O)OCCOCn1cnc2c(=O)[nH]c(N)nc21             HSV-2            5.11
2              Nc1nc2c(ncn2COCCO)c(=O)[nH]1             HSV-2            5.18

* * *

# target or system: hPEPT1 (Homo sapiens, UniProt P46059)
# Construct: endogenous in cells; host or cells: Caco-2 (human colon carcinoma, ATCC)
# Sequence (P46059 whole entry): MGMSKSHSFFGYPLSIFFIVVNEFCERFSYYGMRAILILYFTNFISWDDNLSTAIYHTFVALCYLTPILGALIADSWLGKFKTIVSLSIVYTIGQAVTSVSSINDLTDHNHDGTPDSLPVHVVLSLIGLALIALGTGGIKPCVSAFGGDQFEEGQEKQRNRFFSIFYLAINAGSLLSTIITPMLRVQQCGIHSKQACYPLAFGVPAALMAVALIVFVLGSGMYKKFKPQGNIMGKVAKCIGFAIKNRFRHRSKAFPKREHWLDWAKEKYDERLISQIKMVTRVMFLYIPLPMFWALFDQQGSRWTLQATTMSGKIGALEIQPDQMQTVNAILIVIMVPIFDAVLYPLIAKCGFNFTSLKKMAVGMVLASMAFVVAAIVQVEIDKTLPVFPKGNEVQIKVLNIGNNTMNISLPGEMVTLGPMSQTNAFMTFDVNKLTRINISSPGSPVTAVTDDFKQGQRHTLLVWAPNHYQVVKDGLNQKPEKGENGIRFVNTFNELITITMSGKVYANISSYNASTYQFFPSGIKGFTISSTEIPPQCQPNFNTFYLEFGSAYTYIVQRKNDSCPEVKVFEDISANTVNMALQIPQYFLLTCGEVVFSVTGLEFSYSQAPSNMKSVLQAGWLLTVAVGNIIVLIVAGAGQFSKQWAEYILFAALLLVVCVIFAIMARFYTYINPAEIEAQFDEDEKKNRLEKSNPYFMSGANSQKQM
# assay overview: [3H] Glycylsarcosine uptake and its inhibition in Caco-2 cells (affinity towards peptide transporter)
# Assay type: cell-based
# test context: Lineweaver-Burk; read-out: Ki
quantity: Ki (mM)

> print(dat)
                                   molecule  quantity  reported.value
1  Nc1nc2c(ncn2COCCOC(=O)CNC(=O)C(N)Cc2ccc(O)cc2)c(=O)[nH]1 (stereo not shown)        Ki            8.23
2  NCC(=O)NC(Cc1ccc(O)cc1)C(=O)OCCOCn1cnc2c(=O)[nH]c(N)nc21 (stereo not shown)        Ki            3.94
3  CC(C)C(NC(=O)C(N)Cc1ccc(O)cc1)C(=O)OCCOCn1cnc2c(=O)[nH]c(N)nc21 (stereo not shown)        Ki            4.11
4  CC(C)C(NC(=O)CN)C(=O)OCCOCn1cnc2c(=O)[nH]c(N)nc21 (stereo not shown)        Ki            1.82

* * *

# target or system: hPEPT1 (Homo sapiens)
# Construct: endogenous in cells; host or cells: Caco-2 (human colon carcinoma, ATCC)
# assay overview: [3H] Glycylsarcosine uptake and its inhibition in Caco-2 cells (affinity towards peptide transporter)
# Assay type: cell-based
# test context: Michaelis-Menten; read-out: Ki
Property: Ki; scope: individual compounds
quantity: Ki (mM)

> print(dat)
                                   compound  quantity  reported.value
1  CC(C)C(NC(=O)CN)C(=O)OCCOCn1cnc2c(=O)[nH]c(N)nc21 (stereo not drawn) [Gly-Val-ACV, Glycine-Valine-Acyclovir]        Ki            1.42
2  Nc1nc2c(ncn2COCCOC(=O)CNC(=O)C(N)Cc2ccc(O)cc2)c(=O)[nH]1 (stereo not drawn) [Tyr-Gly-ACV]        Ki            7.99
3  NCC(=O)NC(Cc1ccc(O)cc1)C(=O)OCCOCn1cnc2c(=O)[nH]c(N)nc21 (stereo not drawn) [Gly-Tyr-ACV]        Ki            3.56
4  CC(C)C(NC(=O)C(N)Cc1ccc(O)cc1)C(=O)OCCOCn1cnc2c(=O)[nH]c(N)nc21 (stereo not drawn) [Tyr-Val-ACV]        Ki            4.96
